Experimental Endpoint: melting point

- Molecule: "O=P(O)(O)COc1ccc(-c2c3ccccc3cc3sc4ccccc4c23)cc1"
  Test Result: "240 to 242 °C"
- Molecule: "CC(Cc1c[nH]c2ccccc12)(NC(=O)OC1C2CC3CC(C2)CC1C3)C(=O)NC(CC(=O)O)Cc1ccc(N)cc1 (stereo not given)"
  Test Result: "115 to 120 °C"
- Molecule: "CC1(C)COC(=O)OC1"
  Test Result: "108 to 109 °C"
- Molecule: "CCOC(=O)ON=C1Cc2ccccc2N(C(N)=O)c2ccccc21"
  Test Result: "189 to 190 °C"
- Molecule: "N#Cc1cnc2ccsc2c1Cl"
  Test Result: "105 to 107 °C"
- Molecule: "Cc1c(CCl)ncn1C(c1ccccc1)(c1ccccc1)c1ccccc1"
  Test Result: "133 to 135 °C"
- Molecule: "CC(C)c1cccc(-c2c(Cl)ccc3c2C=C(C(=O)O)C(C(F)(F)F)O3)c1 (stereo not given)"
  Test Result: "184 to 186 °C"
- Molecule: "CN1CCC(C2(O)c3ccccc3Oc3ccc(C(F)(F)F)cc32)CC1 (stereo not given)"
  Test Result: "179 to 183 °C"
- Molecule: "O=C1CSCC(C(=O)O)N1 (stereo not given)"
  Test Result: "152 to 153 °C"
- Molecule: "COc1ccc(C(=O)Nc2ccccc2)cc1NS(=O)(=O)c1ccc(NC(C)=O)cc1"
  Test Result: "250 to 251 °C"
- Molecule: "COCc1nc(C(C)(C)O)c(C(=O)OCOC(=O)C(C)(C)C)n1Cc1ccc(-c2ccccc2-c2nnn[nH]2)cc1"
  Test Result: "71 to 72 °C"
- Molecule: "CSc1ccc(C=C2CCc3cc(OCCn4ccnc4)ccc3C2=O)s1"
  Test Result: "102 to 104 °C"
- Molecule: "Nc1sc(/C=C/Cc2ccc(Cl)cc2)c(CN(C2CCCCC2)C2CCCCC2)c1C(=O)c1ccc(Cl)cc1"
  Test Result: "143 to 146 °C"
- Molecule: "CC(C)NCC1COC(=O)C1(c1ccccc1)c1ccccc1 (stereo not given)"
  Test Result: "78 to 80 °C"
- Molecule: "CCOC(=O)c1c(N(C(C)=O)C(C)=O)c2cccnc2n(CC)c1=O"
  Test Result: "133 to 135 °C"
- Molecule: "NC(=Nc1ccc(CCCC(=O)Oc2cccc(Nc3ccccc3)c2)cc1)c1cccs1"
  Test Result: "110 to 112 °C"
- Molecule: "Cc1cc2c(c3c1NC(=O)C(C)(C)C3)OC(CBr)C2C (stereo not given)"
  Test Result: "192 to 193 °C"
- Molecule: "C=CC(=O)OCCNC(=O)C(C)ON(C(C(C)(C)C)P(=O)(OCC)OCC)C(C)(C)C (stereo not given)"
  Test Result: "95 to 98 °C"
- Molecule: "COc1ccc(-c2nc(Sc3cccc(F)c3)[nH]c2-c2ccc(OC)cc2)cc1"
  Test Result: "147 to 149 °C"
- Molecule: "CCC(=NNC(=O)c1ccccc1)c1ccncc1"
  Test Result: "178 °C"

---

- Compound: "CN(C)C=NS(=O)(=O)c1nc2ccc(O)cc2s1"
  melting point: "195 to 198 °C"
- Compound: "Clc1ccc2nc3c(nc2c1)N1CCCCC1CO3 (stereo not given)"
  melting point: "147 to 149 °C"
- Compound: "CC(C)(C)OC(=O)N1C[C@@H]2[C@H](C1)C(F)(F)CCC2(c1ccccc1)c1ccccc1 (racemic)"
  melting point: "162 °C"
- Compound: "CC(=CC(=O)O)c1ccc(-c2ccc(F)cc2F)cc1"
  melting point: "193 to 195 °C"
- Compound: "CC(C)Oc1ccccc1C=C(C=O)C(C=O)=Cc1ccccc1OC(C)C"
  melting point: "109 to 110 °C"
- Compound: "CCOC(=O)c1cccn2c(C(=O)OCC)c(Cl)nc12"
  melting point: "105 to 106 °C"
- Compound: "CCCCc1nc2ccc(C)c(C(=O)O)c2n1Cc1ccc(-c2ccccc2-c2nnn[nH]2)cc1"
  melting point: "298 to 299 °C"
- Compound: "CCCCNc1ccc2nn(CCC)c(=O)n2n1"
  melting point: "183 to 185 °C"
- Compound: "C#CCN1CCN(C2Cc3ccc(OC)cc3Sc3ccc(Cl)cc32)CC1 (stereo not given)"
  melting point: "177 to 180 °C"
- Compound: "CC(=O)OCCOCn1cnc2c(Cl)nc(Cl)nc21"
  melting point: "96 to 99 °C"
